# credit: patent US20160297889A1

Biological target: T1, CAPRIN-1 protein expressed on the membrane surface of human cancer cells (human, UniProt Q14444 2-709)
T1 sequence (looked up): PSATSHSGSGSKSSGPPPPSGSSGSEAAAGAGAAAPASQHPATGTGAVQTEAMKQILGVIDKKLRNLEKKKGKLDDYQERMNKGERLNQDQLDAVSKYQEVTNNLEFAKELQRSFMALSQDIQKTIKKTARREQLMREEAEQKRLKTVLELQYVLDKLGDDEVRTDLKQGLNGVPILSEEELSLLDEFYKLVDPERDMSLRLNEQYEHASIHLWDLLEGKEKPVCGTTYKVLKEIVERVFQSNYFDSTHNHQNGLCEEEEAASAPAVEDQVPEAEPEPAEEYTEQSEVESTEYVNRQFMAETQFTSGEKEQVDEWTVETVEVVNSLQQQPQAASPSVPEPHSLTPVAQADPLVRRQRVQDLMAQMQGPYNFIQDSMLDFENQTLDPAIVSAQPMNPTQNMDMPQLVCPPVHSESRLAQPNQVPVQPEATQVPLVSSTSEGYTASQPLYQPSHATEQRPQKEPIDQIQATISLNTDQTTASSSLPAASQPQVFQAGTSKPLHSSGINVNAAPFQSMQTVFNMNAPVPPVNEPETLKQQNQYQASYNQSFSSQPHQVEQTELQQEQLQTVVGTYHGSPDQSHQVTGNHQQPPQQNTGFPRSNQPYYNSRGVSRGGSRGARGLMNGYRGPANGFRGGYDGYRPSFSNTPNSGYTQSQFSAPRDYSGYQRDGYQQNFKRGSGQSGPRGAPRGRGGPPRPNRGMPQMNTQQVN
Assay: cell-based or functional assay
property label: ADCC cytotoxic activity (51Cr release) on OE33

| binder | measured result |
| --- | --- |
| humanized antibody #7 (antibody, V domains shown) VH: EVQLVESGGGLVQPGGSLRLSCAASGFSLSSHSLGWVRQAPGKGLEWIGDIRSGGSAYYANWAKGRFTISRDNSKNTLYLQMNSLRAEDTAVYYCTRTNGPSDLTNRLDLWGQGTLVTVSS VL: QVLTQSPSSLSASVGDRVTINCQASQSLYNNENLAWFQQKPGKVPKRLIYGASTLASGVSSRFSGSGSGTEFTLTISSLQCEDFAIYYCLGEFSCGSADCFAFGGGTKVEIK | ≥ 35% |
| humanized antibody #10 (antibody, V domains shown) VH: EQSLVESGGGLVQPGGSLRLSCAASGFSLSSHSLGWVRQAPGKGLEWIGDIRSGGSAYYANWAKGRFTISRDNSKNTLYLQMNSLRAEDTAVYYCTRTNGPSDLTNRLDLWGQGTLVTVSS VL: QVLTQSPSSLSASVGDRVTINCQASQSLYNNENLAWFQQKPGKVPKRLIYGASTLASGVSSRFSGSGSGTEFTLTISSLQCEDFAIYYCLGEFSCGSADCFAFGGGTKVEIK | ≥ 35% |
| humanized antibody #9 (antibody, V domains shown) VH: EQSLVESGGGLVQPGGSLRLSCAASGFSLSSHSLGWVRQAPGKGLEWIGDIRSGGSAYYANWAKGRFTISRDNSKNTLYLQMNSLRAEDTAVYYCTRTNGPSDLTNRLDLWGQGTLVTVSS VL: DIVLTQSPSSLSASVGDRVTINCQASQSLYNNENLAWFQQKPGKVPKRLIYGASTLASGVSSRFSGSGSGTEFTLTISSLQCEDFAIYYCLGEFSCGSADCFAFGGGTKVEIK | ≥ 30% |
| humanized antibody #8 (antibody, V domains shown) VH: QSLVESGGGLVQPGGSLRLSCAASGFSLSSHSLGWVRQAPGKGLEWIGDIRSGGSAYYANWAKGRFTISRTSSKNTVYLQMNSLRAEDTAVYFCTRTNGPSDLTNRLDLWGQGTLVTVSS VL: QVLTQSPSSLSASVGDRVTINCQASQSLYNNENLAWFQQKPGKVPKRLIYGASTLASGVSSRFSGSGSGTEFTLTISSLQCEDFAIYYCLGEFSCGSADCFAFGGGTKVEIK | ≥ 30% |
| human-rabbit chimeric anti-CAPRIN-1 antibody (antibody, V domains shown) VH: QSLEESGGRLVTPGTPLTLTCTASGFSLSSHSLGWVRQAPGKGLEWIGDIRSGGSAYYANWAKGRFTISRTSTTVALKMTSLTTEDTATYFCTRTNGPSDLTNRLDLWGQGTLVTVSS VL: QVLTQTPSSVSAAVGGTVTINCQASQSLYNNENLAWFQQKPGQPPKRLIYGASTLASGVSSRFKGSGSGTQFTLTIGDVQCDDAAIYYCLGEFSCGSADCFAFGGGTEVVVK | ≥ 30% |
| humanized antibody #1 (antibody, V domains shown) VH: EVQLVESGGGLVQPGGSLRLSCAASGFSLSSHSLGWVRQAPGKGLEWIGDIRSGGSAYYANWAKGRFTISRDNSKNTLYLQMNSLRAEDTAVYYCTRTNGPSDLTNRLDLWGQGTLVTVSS VL: AIQMTQSPSSLSASVGDRVTINCQASQSLYNNENLAWFQQKPGKAPKRLIYGASTLASGVSSRFSGSGSGTDFTLTISSLQPEDFAIYYCLGEFSCGSADCFAFGGGTKVEIK | ≥ 30% |
